Molecular target: Urotensin-2 receptor (Rattus norvegicus, UniProt P49684)
Sequence (P49684 whole entry): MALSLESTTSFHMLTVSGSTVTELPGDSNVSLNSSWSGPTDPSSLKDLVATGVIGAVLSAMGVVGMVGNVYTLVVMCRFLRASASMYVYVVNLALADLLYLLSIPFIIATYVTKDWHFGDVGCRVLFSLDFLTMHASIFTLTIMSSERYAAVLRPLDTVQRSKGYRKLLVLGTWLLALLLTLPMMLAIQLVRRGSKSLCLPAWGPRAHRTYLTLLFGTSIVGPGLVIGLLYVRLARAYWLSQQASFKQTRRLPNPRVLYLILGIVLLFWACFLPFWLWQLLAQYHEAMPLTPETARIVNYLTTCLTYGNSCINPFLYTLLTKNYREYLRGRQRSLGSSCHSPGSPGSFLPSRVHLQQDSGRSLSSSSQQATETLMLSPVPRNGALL
Test: Modulation of urotensin-2 receptor in Sprague-Dawley rat thoracic aortic ring assessed as human urotensin-2 pEC50 for induction of aortic ring contraction at 1 uM preincubated for 15 mins followed by human urotensin-2 addition (Rvb = 8.71 +/- 0.08 no unit)
Test Readout: EC50 (nM)
Answers are plain numbers, in nM.

Under Urotensin-2 receptor (Rattus norvegicus, UniProt P49684), report EC50 for NCCCC[C@@H]1N[C@H](c2ccc(-c3ccccc3)cc2)c2[nH]c(C(=O)O)cc2N(CCc2ccc(O)cc2)C1=O
4.5

* * *

Assay: Modulation of urotensin-2 receptor in Sprague-Dawley rat thoracic aortic ring assessed as human urotensin-2 EC50 for induction of aortic ring contraction at 15 uM preincubated for 15 mins followed by human urotensin-2 addition (Rvb = 1.9 nM)
Test Readout: pEC50
Give bare numbers, as −log10 of the molar value.

Please give measured pEC50 of the following entry: NCCCC[C@@H]1N=C(c2ccc(-c3ccccc3)cc2)c2[nH]c(C(=O)O)cc2N(CCc2ccc(O)cc2)C1=O
8.18

* * *

Assay: Modulation of urotensin-2 receptor in Sprague-Dawley rat thoracic aortic ring assessed as human urotensin-2 EC50 for induction of aortic ring contraction at 8 uM preincubated for 15 mins followed by human urotensin-2 addition (Rvb = 1.9 nM)
Test Readout: EC50 (nM)
Answers are plain numbers, in nM.

Give the reported value of EC50 for this record: NCCCC[C@@H]1N=C(c2cccc3ccccc23)c2[nH]c(C(=O)O)cc2N(CCc2ccc(O)cc2)C1=O
7.8

* * *

Target: Urotensin-2 receptor (Rattus norvegicus, UniProt P49684)
Assay: Modulation of urotensin-2 receptor in Sprague-Dawley rat thoracic aortic ring assessed as urotensin-2 related peptide EC50 for induction of aortic ring contraction at 10 uM preincubated for 15 mins followed by urotensin-2 related peptide addition (Rvb = 13 nM)
Test Readout: pEC50
Numbers only, as −log10 of the molar value.

As a guide, the following entries are already answered.
{"Compound": "NCCC[C@@H]1N[C@H](c2cccc3ccccc23)c2[nH]c(C(=O)O)cc2N(CCc2ccc(O)cc2)C1=O", "pEC50": 8.35}
{"Compound": "NCCC[C@@H]1N=C(c2ccc3ccccc3c2)c2[nH]c(C(=O)O)cc2N(CCc2ccc(O)cc2)C1=O", "pEC50": 8.17}
{"Compound": "NCCC[C@@H]1N=C(c2ccc(-c3ccccc3)cc2)c2[nH]c(C(=O)O)cc2N(CCc2ccc(O)cc2)C1=O", "pEC50": 7.64}
{"Compound": "NCCCC[C@@H]1N=C(c2ccc3ccccc3c2)c2[nH]c(C(=O)O)cc2N(CCc2ccc(O)cc2)C1=O", "pEC50": 7.68}
{"Compound": "NCCCC[C@@H]1N[C@H](c2ccc3ccccc3c2)c2[nH]c(C(=O)O)cc2N(CCc2ccc(O)cc2)C1=O", "pEC50": 8.09}

Parameter requested: pEC50. Apply to each item below.
1. NCCCC[C@@H]1N[C@@H](c2ccc3ccccc3c2)c2[nH]c(C(=O)O)cc2N(CCc2ccc(O)cc2)C1=O
2. NCCC[C@@H]1N[C@@H](c2cccc3ccccc23)c2[nH]c(C(=O)O)cc2N(CCc2ccc(O)cc2)C1=O
3. NCCC[C@@H]1N=C(c2cccc3ccccc23)c2[nH]c(C(=O)O)cc2N(CCc2ccc(O)cc2)C1=O

8.06
8.43
7.92
